meta.source: patent US6541237B1

Test system: α-1,4-glucan lyase
assay_method_text: Degradation studies: AF released by the lyase from various substrates
Type: biochemical, Gracilariopsis lemaneiformis
experimental_parameters: in words

compound: OC[C@H]1O[C@@H]2O[C@H]3[C@H](O)[C@@H](O)[C@@H](O[C@H]4[C@H](O)[C@@H](O)[C@@H](O[C@H]5[C@H](O)[C@@H](O)[C@@H](O[C@H]6[C@H](O)[C@@H](O)[C@@H](O[C@H]7[C@H](O)[C@@H](O)[C@@H](O[C@H]8[C@H](O)[C@@H](O)[C@@H](O[C@H]1[C@H](O)[C@H]2O)O[C@@H]8CO)O[C@@H]7CO)O[C@@H]6CO)O[C@@H]5CO)O[C@@H]4CO)O[C@@H]3CO [β-cyclodextrins]
test_target: α-1,4-glucan lyase
degradation by the lyase: not able to degrade
//
compound: OC[C@H]1O[C@H](OC[C@H]2OC(O)[C@H](O)[C@@H](O)[C@@H]2O)[C@H](O)[C@@H](O)[C@@H]1O (stereo partly shown) [isomaltose]
test_target: α-1,4-glucan lyase
degradation by the lyase: not able to degrade
//
compound: OC[C@H]1O[C@H](O[C@H]2O[C@H](CO)[C@@H](O)[C@H](O)[C@H]2O)[C@H](O)[C@@H](O)[C@@H]1O [trehalose]
test_target: α-1,4-glucan lyase
degradation by the lyase: not able to degrade
